FYI, the data here is from patent EP1516629B1.

assayedSystem: T1, human CD11a (human) (UniProt P20701)
T1 sequence (looked up): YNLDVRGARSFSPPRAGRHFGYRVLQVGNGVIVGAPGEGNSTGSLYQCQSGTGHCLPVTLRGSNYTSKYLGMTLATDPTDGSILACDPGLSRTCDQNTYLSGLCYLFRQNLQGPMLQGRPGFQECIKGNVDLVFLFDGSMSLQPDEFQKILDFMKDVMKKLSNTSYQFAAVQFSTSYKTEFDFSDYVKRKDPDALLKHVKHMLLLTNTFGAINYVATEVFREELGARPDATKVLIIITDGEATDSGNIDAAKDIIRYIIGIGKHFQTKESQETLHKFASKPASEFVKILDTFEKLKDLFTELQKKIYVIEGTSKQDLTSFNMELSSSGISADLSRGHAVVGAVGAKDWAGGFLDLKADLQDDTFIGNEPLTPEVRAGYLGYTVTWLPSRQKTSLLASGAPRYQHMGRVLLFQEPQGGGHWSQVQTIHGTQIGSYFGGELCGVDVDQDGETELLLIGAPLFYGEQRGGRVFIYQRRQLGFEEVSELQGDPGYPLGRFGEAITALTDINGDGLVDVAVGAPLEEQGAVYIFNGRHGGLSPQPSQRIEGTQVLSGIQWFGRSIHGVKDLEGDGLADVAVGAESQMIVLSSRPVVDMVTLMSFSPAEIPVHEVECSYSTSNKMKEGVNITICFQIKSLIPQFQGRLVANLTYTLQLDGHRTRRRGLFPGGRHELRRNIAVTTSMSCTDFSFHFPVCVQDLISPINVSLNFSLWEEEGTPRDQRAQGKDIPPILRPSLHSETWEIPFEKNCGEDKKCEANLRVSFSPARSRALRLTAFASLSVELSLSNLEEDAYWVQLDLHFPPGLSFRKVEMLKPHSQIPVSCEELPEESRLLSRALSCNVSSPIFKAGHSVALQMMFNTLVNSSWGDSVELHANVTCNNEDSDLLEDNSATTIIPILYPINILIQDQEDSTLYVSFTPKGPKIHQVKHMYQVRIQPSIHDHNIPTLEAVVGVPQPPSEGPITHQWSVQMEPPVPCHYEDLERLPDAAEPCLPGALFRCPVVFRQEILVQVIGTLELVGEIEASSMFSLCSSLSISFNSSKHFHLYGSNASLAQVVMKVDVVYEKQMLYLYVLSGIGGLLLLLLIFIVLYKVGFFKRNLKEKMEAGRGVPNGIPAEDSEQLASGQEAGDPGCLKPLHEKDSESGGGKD
testDescription: FACScan, Jurkat cells
measuredProperty: Var.EC50/HuIgG1 EC50
// return a plain number; no unit text

binder="L1 variant IgG1 (antibody, V domains shown) VH: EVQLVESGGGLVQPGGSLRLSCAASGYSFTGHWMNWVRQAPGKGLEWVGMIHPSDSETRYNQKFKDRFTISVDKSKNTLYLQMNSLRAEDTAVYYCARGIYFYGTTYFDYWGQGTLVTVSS VL: DIQMTQSPSSLSASVGDRVTITCRASAAIAAYLAWYQQKPGKAPKLLIYSGSTLQSGVPSRFSGSGSGTDFTLTISSLQPEDFATYYCQQHNEYPLTFGQGTKVEIKR" recordednumber=1.3

Lookup: Recorded Var.EC50/HuIgG1 EC50 for SerH55Asn variant IgG1 (antibody, V domains shown) VH: EVQLVESGGGLVQPGGSLRLSCAASGYSFTGHWMNWVRQAPGKGLEWVGMIHPSDNETRYNQKFKDRFTISVDKSKNTLYLQMNSLRAEDTAVYYCARGIYFYGTTYFDYWGQGTLVTVSS VL: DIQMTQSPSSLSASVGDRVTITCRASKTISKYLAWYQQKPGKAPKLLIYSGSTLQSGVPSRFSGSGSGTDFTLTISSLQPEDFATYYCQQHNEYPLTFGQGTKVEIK , please?
Found: 2.1

Lookup: Recorded Var.EC50/HuIgG1 EC50 for TyrH97Ala variant IgG1 (antibody, V domains shown) VH: EVQLVESGGGLVQPGGSLRLSCAASGYSFTGHWMNWVRQAPGKGLEWVGMIHPSDSETRYNQKFKDRFTISVDKSKNTLYLQMNSLRAEDTAVYYCARGIAFYGTTYFDYWGQGTLVTVSS VL: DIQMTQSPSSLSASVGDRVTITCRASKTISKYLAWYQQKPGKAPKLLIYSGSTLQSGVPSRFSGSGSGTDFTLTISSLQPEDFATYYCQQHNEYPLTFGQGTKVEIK , please?
Found: 10.9
